For each of the compounds below, state its CC50 at 72 h.
- METHOD: Cytotoxicity against MDCK cells assessed as reduction in cell viability after 72 hrs by MTS assay
- Assay type: cell-based, Canis lupus familiaris
- CONDITION_SET: dog

Need CC50 at 72 h for each of these compounds.
1. CC(=O)N[C@H]1[C@H]([C@H](O)[C@H](O)CO)OC(C(=O)O)=C[C@@H]1NC(=N)N
2. NC12CC3CC(CC(C3)C1)C2
3. CCCCCCCCO[C@@H]1[C@@H](OCCCCCCCC)[C@@H](OC)O[C@H](COCCOCCOCCOCCOCc2cn([C@H]3C(=O)N[C@@H]4Cc5ccc(c(Cl)c5)Oc5cc6cc(c5O)Oc5ccc(cc5Cl)[C@@H](O[C@@H]5O[C@H](CO)[C@@H](O)[C@H](O)[C@H]5NC(C)=O)[C@@H]5NC(=O)[C@H](NC(=O)[C@@H]6NC(=O)[C@@H](NC4=O)c4cc(O)cc(c4)Oc4cc3ccc4O)c3ccc(O)c(c3)-c3c(O)cc(O)cc3[C@@H](C(=O)O)NC5=O)nn2)[C@H]1OCc1ccc(OC)cc1
4. CC(N)C12CC3CC(CC(C3)C1)C2 (stereo not given)
5. NC(=O)c1ncn([C@@H]2O[C@H](CO)[C@@H](O)[C@H]2O)n1

(A)
1: > 100 µM; 2: > 500 µM; 3: 11 µM; 4: > 500 µM; 5: > 100 µM

====

- METHOD: Cytotoxicity against MDCK cells assessed as change in cell morphology after 72 hrs by microscopy
- Format: cell-based, Canis lupus familiaris
- CONDITION_SET: dog
MEASUREMENT_NAME: MCC at 72 h

Need MCC at 72 h for each of these compounds.
1. COc1ccc(CO[C@H]2[C@H](OC)[C@@H](OC)[C@@H](OC)O[C@@H]2COCCOCCOCCOCCOCc2cn([C@H]3C(=O)N[C@@H]4Cc5ccc(c(Cl)c5)Oc5cc6cc(c5O)Oc5ccc(cc5Cl)[C@@H](O[C@@H]5O[C@H](CO)[C@@H](O)[C@H](O)[C@H]5NC(C)=O)[C@@H]5NC(=O)[C@H](NC(=O)[C@@H]6NC(=O)[C@@H](NC4=O)c4cc(O)cc(c4)Oc4cc3ccc4O)c3ccc(O)c(c3)-c3c(O)cc(O)cc3[C@@H](C(=O)O)NC5=O)nn2)cc1
2. C.CCCCCCCCO[C@H]1[C@@H](OC)O[C@H](COCCOCCOCCOCCOCc2cn([C@H]3C(=O)N[C@@H]4Cc5ccc(c(Cl)c5)Oc5cc6cc(c5O)Oc5ccc(cc5Cl)[C@@H](O[C@@H]5O[C@H](CO)[C@@H](O)[C@H](O)[C@H]5NC(C)=O)[C@@H]5NC(=O)[C@H](NC(=O)[C@@H]6NC(=O)[C@@H](NC4=O)c4cc(O)cc(c4)Oc4cc3ccc4O)c3ccc(O)c(c3)-c3c(O)cc(O)cc3[C@@H](C(=O)O)NC5=O)nn2)[C@@H](O)[C@@H]1OCCCCCCCC

(A)
1. ≥ 20 µM
2. ≥ 4 µM

====

For each of the compounds below, state its EC50.
- System: Influenza B virus
- METHOD: Antiviral activity against Influenza B virus (B/HK/05/1972) infected in MDCK cells assessed as reduction in host cell viability after 72 hrs by MTS assay
- Type: functional, cell-based
- CONDITION_SET: B/Hong Kong/05/1972, MDCK

Need EC50 for each of these compounds.
1. CC(N)C12CC3CC(CC(C3)C1)C2 (centres undefined)
2. NC12CC3CC(CC(C3)C1)C2
3. COc1ccc(CO[C@H]2[C@H](OC)[C@@H](OC)[C@@H](OC)O[C@@H]2COCCOCCOCCOCCOCc2cn([C@H]3C(=O)N[C@@H]4Cc5ccc(c(Cl)c5)Oc5cc6cc(c5O)Oc5ccc(cc5Cl)[C@@H](O[C@@H]5O[C@H](CO)[C@@H](O)[C@H](O)[C@H]5NC(C)=O)[C@@H]5NC(=O)[C@H](NC(=O)[C@@H]6NC(=O)[C@@H](NC4=O)c4cc(O)cc(c4)Oc4cc3ccc4O)c3ccc(O)c(c3)-c3c(O)cc(O)cc3[C@@H](C(=O)O)NC5=O)nn2)cc1
4. C.CCCCCCCCO[C@H]1[C@@H](OC)O[C@H](COCCOCCOCCOCCOCc2cn([C@H]3C(=O)N[C@@H]4Cc5ccc(c(Cl)c5)Oc5cc6cc(c5O)Oc5ccc(cc5Cl)[C@@H](O[C@@H]5O[C@H](CO)[C@@H](O)[C@H](O)[C@H]5NC(C)=O)[C@@H]5NC(=O)[C@H](NC(=O)[C@@H]6NC(=O)[C@@H](NC4=O)c4cc(O)cc(c4)Oc4cc3ccc4O)c3ccc(O)c(c3)-c3c(O)cc(O)cc3[C@@H](C(=O)O)NC5=O)nn2)[C@@H](O)[C@@H]1OCCCCCCCC

(A)
1: > 500 µM; 2: > 500 µM; 3: > 100 µM; 4: > 100 µM
